The reported numbers originate from ChEMBL document CHEMBL4689842.

# Population Membrane Permeable-Phenotype (%) per entry
Tested on: U2OS
Assay: Multiplex assay against U2OS
Format: toxicity, cell-based
Details: human, 48 h, 1 µM, compound concentration 1 uM, replicate 1
measured parameter: Population Membrane Permeable-Phenotype (%)

>>> value_measured("CC(C)OC(=O)N1CCC(Oc2ncnc3c2cnn3-c2ccc(S(C)(=O)=O)cc2F)CC1")
1
>>> value_measured("Cl.O=C(O)c1cc(-c2ccc(C3CCNCC3)cc2)c2ccc(-c3ccc(C(F)(F)F)cc3)cc2c1")
1
>>> value_measured("COC(=O)C1=C(C)NC(C)=C(C(=O)OCCCN2CCC(c3ccccc3)(c3ccccc3)CC2)[C@H]1c1cccc([N+](=O)[O-])c1")
82
>>> value_measured("CC(C)Oc1ccccc1C(=O)Nc1ccccc1C(=O)Nc1cccc(S(=O)(=O)C(F)(F)F)c1")
4
